- Assay Explanation: yeast display, Sf9 membrane polyspecificity reagent, FACS + sequencing; frameworks hold sequencing errors
Endpoint Label: polyreactivity (PSR sort gate)

Example cases with answers are listed next.
{"Seq Text": "QAQLVESGGGLVQAGGSLRLICAASGSTFGVNAMGWYTQAPGKERELVAIITSTTYADSVKGRFTISRDNAKNTVYLQMNSLKPEDTAVYYCAKVQERVTKGRFYLLEYYWGQGTQVTVSS", "polyreactivity (PSR sort gate)": "low polyreactivity"}
{"Seq Text": "QVQLVESGGGLVQAGGSLRLSCAASGSTFGGYTMGWYRQAPGKERELVADITSSGSTNYADSLKGRFTISRDNAKNTVYLQMNSLKPEDTAVYYCAVRTYPGRFWYWGVDMDYWGQGTQVTVSS", "polyreactivity (PSR sort gate)": "low polyreactivity"}
{"Seq Text": "QVQLVESGGGLVQAGGSLRLSCAASGSTFGLYVMGWYRQAPGQERELVAAISRRGGSTYYADSVKGRFTSSRDNAKNTVYLQMNSLKPEDTAVYYCNTYYRGGPYDVAYDYWGQGTQVTVSS", "polyreactivity (PSR sort gate)": "high polyreactivity"}
{"Seq Text": "QVHLVESGGGLVQAGGSLRISCAASGRIFRRYAMGWYRQAPGKERELVAAITRSGGSTYYADSVKGRFTISRDNAKNTVYLQMNSLKPEDTAVYYCNAPSSLGTDYDYWGQGTQVTVSS", "polyreactivity (PSR sort gate)": "high polyreactivity"}
{"Seq Text": "QVQLVESGGGLVQAGGSLRLSCAASGSIFYRNAMGWYRQAPGKERELVAAISRSGGSTYYADSVKGRFTISRDNAKNTVYLQMNSLKPEDTAVYYCAKARPLGGTPSNGFDYWGQGTQVTVSS", "polyreactivity (PSR sort gate)": "high polyreactivity"}
{"Seq Text": "QVQLVESGGGLVQAGGSLRLSCAASGRTFPYYAMGWYRQAPGKERELVAAISSSGGSTYYADSVKARFTISGDNAKNTVYLQMNSLKPEDTAVYDCTRYSRLYLTDDDYWGQGTQVTVSS", "polyreactivity (PSR sort gate)": "high polyreactivity"}

Hey, can you go through the list below and give me polyreactivity (PSR sort gate) for every item?
1. QVQLVESGGGLVQAGGSLRLSCAAYGYIFLRNAMGWYRQAPGKERELVAAIRRTGGSTYYADSVKGRFTISRDNAKNTVYLQMNSLKPEDTAVYYCAKRSYTGYEYWGQGTQVTVSS
2. QVQLVESGGGLVQAGGSLLLSCAASGSIFIYYTIGWYRQARGKARELVAAITRSGGDTYYADSVKGRFTISRDNAKNTVYLQMNSLKPEDTAVYYCAADSWLRYGTYEYWGQGTQVTVSS

Outgoing:
1: low polyreactivity; 2: high polyreactivity

Hey, can you go through the list below and give me polyreactivity (PSR sort gate) for every item?
1. QVQLVESGGGLVQAGGSLRLSCAASGFIFGQYAMGWYRQAPGKERELVAAISRSGGSTYYADSVKGRFTISRDNAKNTVYLQMNSLKPEDTAVYYCNRRDRGDSYRLDYWGQGTQVTVSS
2. QVQLVESGGGLVQAGGSLRLSCAASGSTFGWYAMGWYRQAPGKERELVASISRSGGRTFYADSVKGRFTISRDNAKNTVYLQMNRLKPEDTAVYYCAADALIYYKGSPDYYWGQGTQVNVSS

Outgoing:
high polyreactivity
high polyreactivity

Incoming: What value of polyreactivity (PSR sort gate) has been recorded for this entry: `QVQLVESGGGLVQAGGSLRLSCAASGFNFDGNAMGWYRQEPGKEMELVARITWDDGSTYYADSVKGRFTISRDNAKNTVYLQMNSLKPEDTAVYYCNTDYGEYYSLDLLWWYIPYDYWGQGTQVTVSS`
Outgoing: low polyreactivity
